These measurements were taken from patent US20120328569A1.

- Test system: HCV genotype 1b replicon
- experimental-details: HCV replicon assay, cell ELISA with antibody to replicon-encoded NS3/4A (genotype 1b replicon)
- Type: cell-based, hepatitis C virus
- stated-conditions: Hepatitis C virus, 96 h, read-out: 1b IC50(nM), HCV genotype 1b replicon; 96 hours incubation; NS3/4A cell ELISA
assay-metric: IC50 (nM)

> print(dat)
                                   molecule  unit.text  result.number
1  CNC(=O)c1c(-c2ccc(F)cc2)oc2cc(N(C3CC(C#N)C3)S(C)(=O)=O)c(-c3ccc(OC)c(-c4nc5c(F)cc(F)cc5o4)c3)cc12 (stereo not drawn)         nM           4.57
2  CNC(=O)c1c(-c2ccc(F)cc2)oc2cc(N(CCC(C)(C)O)S(C)(=O)=O)c(-c3ccc(OC)c(-c4nc5ncccc5o4)c3)cc12         nM            2.9
3  CNC(=O)c1c(-c2ccc(F)cc2)oc2cc(N(CCCO)S(C)(=O)=O)c(-c3cc(F)cc(-c4nc5ncccc5o4)c3)cc12         nM              4
4  CNC(=O)c1c(-c2ccc(F)cc2)oc2cc(N(CC(C)(C)F)S(C)(=O)=O)c(-c3ccc(OC)c(-c4nc5c(F)cc(F)cc5o4)c3)cc12         nM           28.5
5  CNC(=O)c1c(-c2ccc(F)cc2)oc2cc(N(CC(F)F)S(C)(=O)=O)c(-c3cccc(-c4nc5ncccc5o4)c3)cc12         nM            2.3
6  CNC(=O)c1c(-c2ccc(F)cc2)oc2cc(N(CC(F)F)S(C)(=O)=O)c(-c3cc(F)cc(-c4nc5ncccc5o4)c3)cc12         nM            3.5

###

- Tested on: HCV genotype 1b replicon
- experimental-details: HCV replicon assay, cell ELISA with antibody to replicon-encoded NS3/4A (genotype 1b replicon)
- Format: cell-based, hepatitis C virus
- stated-conditions: Hepatitis C virus, 96 h, read-out: 1b IC50(nM), HCV genotype 1b replicon; 96 hours incubation; NS3/4A cell ELISA
IC50 values, listed per item

compound	IC50, nM
CNC(=O)c1c(-c2ccc(F)cc2)oc2cc(N(C)S(C)(=O)=O)c(-c3ccc(OCC(F)F)c(-c4cc5ccccc5[nH]4)c3)cc12 [Example 622]	647
CNC(=O)c1c(-c2ccc(F)cc2)oc2cc(N(C(CO)CF)S(C)(=O)=O)c(-c3ccc(OC)c(-c4nc5c(F)cccc5o4)c3)cc12 (stereo not drawn) [Example 814]	9.83
CNC(=O)c1c(-c2ccc(F)cc2)oc2cc(N(C)S(C)(=O)=O)c(-c3ccc(C(=O)O)c(-c4nc5c(F)cccc5o4)c3)cc12 [Example 651]	155
CNC(=O)c1c(-c2ccc(F)cc2)oc2cc(N(C)S(C)(=O)=O)c(-c3ccc(O)c(-c4nc5c(Cl)cccc5o4)c3)cc12 [Example 607]	27.1
CNC(=O)c1c(-c2ccc(F)cc2)oc2cc(N(C)S(C)(=O)=O)c(-c3ccc(S(C)(=O)=O)c(-c4nc5c(Cl)cccc5o4)c3)cc12 [Example 420]	5.08
CN(C(=O)c1c(-c2ccc(F)cc2)oc2cc(N(C)S(C)(=O)=O)c(-c3cccc(-c4cc5ccccc5[nH]4)c3)cc12)c1ccncc1 [Example 848]	6440
